- Tested on: SR
- assay_summary: Antiproliferative activity against human SR cells after 48 hrs by SRB assay
- Format: functional, cell-based
pIC50: −log10 of the molar value.
attribute_measured: pIC50

What is its pIC50 for SR? Entry: `C=CC[C@H]1C[C@]2([C@@H](C)Cc3ccc(OC)c(OC)c3)OCOC2=CC1=O`
> 7.00

----------
- Tested on: MDA-MB-435
- assay_summary: Antiproliferative activity against human MDA-MB-435 cells after SRB assay
- Type: functional, cell-based
pIC50: −log10 of the molar value.
attribute_measured: pIC50

What is its pIC50 for MDA-MB-435? Entry: `C=CC[C@H]1C[C@]2([C@@H](C)Cc3ccc(OC)c(OC)c3)OCOC2=CC1=O`
> 7.00
